As an illustration, consider measured IC50 for molecules on Prostaglandin G/H synthase 1 (Ovis aries, UniProt P05979).
attribute.measured: IC50

1) COc1ccc2c(c1)c(CC(=O)NCc1ccc(CNC(=O)CCC(=O)O[C@@H]3c4cc5c(cc4[C@H](c4cc(OC)c(OC)c(OC)c4)[C@@H]4C(=O)OCC34)OCO5)cc1)c(C)n2C(=O)c1ccc(Cl)cc1 (some centres not stated) = > 25 µM
2) COc1ccc2c(c1)c(CC(=O)O[C@@H](C(=O)O[C@H]1C[C@@]3(O)[C@@H](OC(=O)c4ccccc4)[C@@H]4[C@]5(OC(C)=O)CO[C@@H]5C[C@H](O)[C@@]4(C)C(=O)[C@H](OC(C)=O)C(=C1C)C3(C)C)[C@@H](NC(=O)c1ccccc1)c1ccccc1)c(C)n2C(=O)c1ccc(Cl)cc1 = > 25 µM

* * *

- target.desc: Prostaglandin G/H synthase 1 (Ovis aries)
- Sequence (P05979 whole entry): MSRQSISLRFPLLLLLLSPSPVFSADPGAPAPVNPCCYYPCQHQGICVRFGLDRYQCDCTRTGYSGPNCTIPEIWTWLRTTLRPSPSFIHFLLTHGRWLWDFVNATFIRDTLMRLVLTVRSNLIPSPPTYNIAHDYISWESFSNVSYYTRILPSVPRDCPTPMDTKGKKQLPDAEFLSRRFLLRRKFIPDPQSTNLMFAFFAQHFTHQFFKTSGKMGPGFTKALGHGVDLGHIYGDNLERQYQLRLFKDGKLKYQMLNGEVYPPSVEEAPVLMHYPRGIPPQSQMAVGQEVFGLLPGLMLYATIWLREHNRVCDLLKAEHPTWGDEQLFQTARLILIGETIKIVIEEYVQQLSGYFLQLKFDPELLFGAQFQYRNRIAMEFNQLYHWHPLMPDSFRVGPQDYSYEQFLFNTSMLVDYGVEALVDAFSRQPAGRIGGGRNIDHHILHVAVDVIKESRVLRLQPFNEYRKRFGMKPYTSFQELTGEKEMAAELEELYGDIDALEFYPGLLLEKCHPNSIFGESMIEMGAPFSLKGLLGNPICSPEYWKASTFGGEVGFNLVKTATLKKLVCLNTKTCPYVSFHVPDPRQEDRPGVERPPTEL
attribute.measured: IC50

1. COc1ccc2c(c1)c(CC(=O)NCCCCNC(=O)CCC(=O)OC1CCCCC1)c(C)n2C(=O)c1ccc(Cl)cc1 [Cytotoxic conjugates, 16] = > 25 µM
2. COc1ccc2c(c1)c(CCNC(=O)CCC(=O)Nc1ccc(S(=O)(=O)Nc3nccs3)cc1)c(C)n2Cc1ccc(Br)cc1 [Cytotoxic conjugates, 9] = > 25 µM
3. COc1cc([C@@H]2c3cc4c(cc3[C@H](O)[C@H]3COC(=O)[C@H]23)OCO4)cc(OC)c1OC [podophyllotoxin] = > 25 µM
4. COc1ccc2c(c1)c(CC(=O)NCCNC(=O)/C=C(C)/C=C/C=C(C)\C=C\C1=C(C)CCCC1(C)C)c(C)n2C(=O)c1ccc(Cl)cc1 [Cytotoxic conjugates, 7] = > 25 µM
5. COc1ccc2c(c1)c(CC(=O)NCCCCOC(=O)CCC(=O)O[C@@H](C(=O)O[C@H]1C[C@@]3(O)[C@@H](OC(=O)c4ccccc4)[C@@H]4[C@]5(OC(C)=O)CO[C@@H]5C[C@H](O)[C@@]4(C)C(=O)[C@H](OC(C)=O)C(=C1C)C3(C)C)[C@@H](NC(=O)c1ccccc1)c1ccccc1)c(C)n2C(=O)c1ccc(Cl)cc1 [Cytotoxic conjugates, 3] = > 25 µM

* * *

- target.desc: Prostaglandin G/H synthase 1 (Ovis aries)
pIC50: −log10 of the molar value.
Listed here: items and their measured pIC50.
attribute.measured: pIC50

1. COc1ccc2c(c1)c(CC(=O)NCCNC(=O)CCC(=O)O[C@@H]1c3cc4c(cc3[C@H](c3cc(OC)c(OC)c(OC)c3)[C@@H]3C(=O)OCC13)OCO4)c(C)n2C(=O)c1ccc(Cl)cc1 (stereo partly drawn) [Cytotoxic conjugates, 11] = < 4.60
2. CCC1(O)C(=O)OCc2c1cc1n(c2=O)Cc2cc3cc(OC(=O)CCC(=O)OCCNC(=O)Cc4c(C)n(C(=O)c5ccc(Cl)cc5)c5ccc(OC)cc45)ccc3nc2-1 (stereo not drawn) [Cytotoxic conjugates, 10] = < 4.60
3. COc1ccc2c(c1)c(CC(=O)NCCCCOC(=O)CCC(=O)O[C@@H]1c3cc4c(cc3[C@H](c3cc(OC)c(OC)c(OC)c3)[C@@H]3C(=O)OCC13)OCO4)c(C)n2C(=O)c1ccc(Cl)cc1 (stereo partly drawn) [Cytotoxic conjugates, 14] = < 4.60

* * *

Listed here: items and their measured IC50.
- target.desc: Prostaglandin G/H synthase 2 (Mus musculus, UniProt Q05769)
- Sequence (Q05769 whole entry): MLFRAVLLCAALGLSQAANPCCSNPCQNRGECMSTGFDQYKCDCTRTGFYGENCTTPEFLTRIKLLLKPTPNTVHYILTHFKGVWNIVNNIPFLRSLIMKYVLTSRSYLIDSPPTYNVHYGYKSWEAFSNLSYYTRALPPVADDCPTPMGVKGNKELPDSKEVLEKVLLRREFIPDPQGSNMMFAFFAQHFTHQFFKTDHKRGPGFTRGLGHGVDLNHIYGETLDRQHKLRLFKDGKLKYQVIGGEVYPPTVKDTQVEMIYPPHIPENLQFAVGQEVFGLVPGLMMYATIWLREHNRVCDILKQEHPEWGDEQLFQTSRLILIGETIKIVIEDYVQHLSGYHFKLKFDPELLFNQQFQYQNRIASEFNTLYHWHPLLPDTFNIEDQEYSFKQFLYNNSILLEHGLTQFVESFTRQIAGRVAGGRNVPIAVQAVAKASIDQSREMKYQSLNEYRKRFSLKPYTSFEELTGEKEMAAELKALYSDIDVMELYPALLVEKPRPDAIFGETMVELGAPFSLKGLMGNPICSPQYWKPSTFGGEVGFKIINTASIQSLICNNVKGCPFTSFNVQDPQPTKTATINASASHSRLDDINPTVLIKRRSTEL
attribute.measured: IC50 (nM)

1. COc1ccc2c(c1)c(CC(=O)NCCNC(=O)/C=C(C)/C=C/C=C(C)/C=C/C1=C(C)CCCC1(C)C)c(C)n2C(=O)c1ccc(Cl)cc1 [Cytotoxic conjugates, 6] = 100
2. COc1ccc2c(c1)c(CC(=O)NCCNC(=O)/C=C(C)/C=C/C=C(C)\C=C\C1=C(C)CCCC1(C)C)c(C)n2C(=O)c1ccc(Cl)cc1 [Cytotoxic conjugates, 7] = 600
3. COc1ccc2c(c1)c(CC(=O)NCCNC(=O)CCC(=O)O[C@@H]1c3cc4c(cc3[C@H](c3cc(OC)c(OC)c(OC)c3)[C@@H]3C(=O)OCC13)OCO4)c(C)n2C(=O)c1ccc(Cl)cc1 (some centres not stated) [Cytotoxic conjugates, 11] = 470
